METHOD DESCRIPTION: Tissue distribution after i.g. or i.v. linezolid in control, CCl4-induced and 5/6 Nx rats
Type: in vivo, rat
RUN CONDITIONS: rat, lung, oral, 63 mg/kg, i.g. 63 mg/kg linezolid; 1 h; control rats; read-out: Tissue/plasma concentration ratio, Lung
EXPERIMENTAL ENDPOINT: Kp at 1 h
Please reply with the number alone, leaving off any unit.

[in] Could you tell me which Kp at 1 h is on file for CC(=O)NC[C@H]1CN(c2ccc(N3CCOCC3)c(F)c2)C(=O)O1 [Linezolid] ?
[out] 0.07

###

METHOD DESCRIPTION: Tissue distribution after i.g. or i.v. linezolid in control, CCl4-induced and 5/6 Nx rats
Assay type: in vivo, rat
RUN CONDITIONS: rat, small intestine, iv, 25 mg/kg, i.v. 25 mg/kg linezolid; 1 h; 5/6 Nx rats; read-out: Tissue/plasma concentration ratio, Small intestine
EXPERIMENTAL ENDPOINT: Kp at 1 h

[in] Could you tell me which Kp at 1 h is on file for CC(=O)NC[C@H]1CN(c2ccc(N3CCOCC3)c(F)c2)C(=O)O1 ?
[out] 0.77
